B1: APBB1IP (parent)
chain: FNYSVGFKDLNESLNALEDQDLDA

Variants of: B1
Assay: protein stability index of a GFP-peptide fusion (GPS, HEK-293T) (PSI 1-6); higher = more stable;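 also: lentivirally expressed fusions sorted by FACS into six bins by GFP to DsRed ratio, PSI derived from sequencing read proportions per bin multiplied by bin number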
Conditions: c terminus: a fixed tail appended
Experimental readout: protein stability index
No unit in the answer, please; the number alone is enough.

[Q] Supply measured protein stability index of A16Q in your reply.
[A] 4.52

[Q] Give me measured protein stability index, please, for this variant: E12D
[A] 4.32

[Q] Output protein stability index of N11E
[A] 4.88

[Q] Complete the entry with protein stability index for F7N
[A] 5.13

[Q] Consider the variant L14C . State its measured protein stability index.
[A] 3.86

[Q] Specify reported protein stability index for the variant shown: Y3D
[A] 4.89

[Q] Return protein stability index for the following variant: F7H
[A] 4.57

[Q] Retrieve protein stability index measured for L10D and print it.
[A] 5.16

[Q] Quickly give me recorded protein stability index for V5C
[A] 4.08

[Q] Return reported protein stability index. Input variant: N15L
[A] 4.04

[Q] Hello, please tell me recorded protein stability index for this one: G6S
[A] 3.89

[Q] Look up and state reported protein stability index for F7Q
[A] 5.15

[Q] Quote protein stability index reported for G6P please.
[A] 4.73

[Q] Output protein stability index of D23E
[A] 4.22

[Q] Give recorded protein stability index. G6F
[A] 2.58

[Q] State its protein stability index for this variant: F7A
[A] 5.3

[Q] Answer with the recorded protein stability index of G6K only.
[A] 4.05

[Q] Tell me protein stability index reported for D19K
[A] 4.5

[Q] Give protein stability index for the following variant: Y3C
[A] 4.74

[Q] Query protein stability index for Y3E
[A] 5.43

[Q] Note protein stability index for the variant shown: D23P
[A] 4.38

[Q] Give the measured protein stability index for L22D
[A] 4.68

[Q] Look up and state reported protein stability index for S13L
[A] 2.83

[Q] State its protein stability index: N2G
[A] 4.39

[Q] Give protein stability index for N15H
[A] 4.08

[Q] Identify protein stability index associated with the variant L10P
[A] 4.62

[Q] State its protein stability index: L22Y
[A] 4.37

[Q] Indicate the recorded protein stability index value for this variant: Y3P
[A] 5.15

[Q] Check the records and state protein stability index for G6T
[A] 3.57

[Q] Supply measured protein stability index of L17F in your reply.
[A] 4.43

[Q] Name the recorded protein stability index of the item Q20F in your answer.
[A] 3.57

[Q] Let me know recorded protein stability index for Y3V , thanks.
[A] 3.54

[Q] Identify measured protein stability index associated with D19M
[A] 3.05

[Q] For the variant D23T , give its measured protein stability index value.
[A] 3.85

[Q] Recall and state the measured protein stability index for D9I .
[A] 2.49

[Q] Specify protein stability index for V5I and stop.
[A] 4.38
